Here the recorded interaction score is given for each entry.
tested system: T1, 4H2642-AA
T1 chain: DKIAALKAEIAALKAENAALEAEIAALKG
test details: two-hybrid library CCmax;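 also: natural log of median RNA to DNA barcode read ratio; higher means stronger binding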
condition notes: mean of both orientations
Give only the figure.

binder	interaction score
DENAALEAKIAALKAKNAALKAEIAALEG [4H1401-AA]	1.3

Quick one: interaction score of DKIAALEAKIAALEAKNAALEAEIAALKG [4H2354-AA] ?
-0.757

So what's the measured interaction score for this one? DENAALKAEIAALKAKIAALEAENAALKG [4H1636-AA]
-1.33

Which measured interaction score value corresponds to DENAALEAENAALEAEIAALEAEIAALEG [4H1153-AA] ?
-1.43

Requested field: interaction score. Item: DKIAALKAEIAALEAKNAALKAEIAALEG [4H2617-AA]
2.25

If you can, please state the reported interaction score value of DEIAALEAENAALKAKIAALKAEIAALKG [4H234-AA] .
0.56

So what does the record say about interaction score for DKIAALEAENAALEAEIAALKAKIAALKG [4H2190-AA] ?
-0.738
